- target.under.test: human Dopamine Receptor D2 (DRD2), DRD2 (gene 1813)
- test.name: NVS_GPCR_hDRD2s: NovaScreen (NVS) G Protein-Coupled Receptor Assay for human Dopamine Receptor D2 (DRD2) (AID 2283266)
Results filed as inconclusive are left out. Activity calls are given as the source filed them. The calls were made as follows: active = hit-call score of the fitted dose curve at least 0.9, where 1 is the maximum; inconclusive = response in the unintended direction; inactive = score below 0.9.
Possible outcomes: True for active, False for inactive

| sample.smiles | label |
| --- | --- |
| Oc1ccc(C(c2ccc(O)cc2)(C(F)(F)F)C(F)(F)F)cc1 | True |
| CC(C)(c1ccccc1)c1ccc(O)cc1 | False |
| CCCCCCCCCC[N+](C)(C)CCCCCCCCCC | True |
| Cc1cc(-c2ccc(N)c(C)c2)ccc1N | False |

###

- test.name: ATG_M_06_TRANS: Attagene TRANS-FACTORIAL HepG2 Assay for M06 Transcription Factor (Internal Marker) (AID 2282983);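 also: reporter transcript level by RT-PCR then capillary electrophoresis fluorescence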
- measurement.setup: HepG2 Attagene TRANS M06 internal marker reporter
Inconclusive results are not listed. The source made the active and inactive calls. Rule for the calls: active = hit-call score of the fitted dose curve at least 0.9, where 1 is the maximum; inconclusive = response in the unintended direction; inactive = score below 0.9.
parameter: outcome

| sample.smiles | parameter | reported.result |
| --- | --- | --- |
| CN(C)c1nc(=O)n(C2CCCCC2)c(=O)n1C | outcome | inactive |
| CC(c1ccc(O)cc1)(c1ccc(O)cc1)c1ccc(O)cc1 | outcome | inactive |
| C=CC(N)=O | outcome | inactive |
| NS(=O)(=O)C(F)(F)C(F)(F)C(F)(F)C(F)(F)C(F)(F)C(F)(F)C(F)(F)C(F)(F)F | outcome | inactive |
| CCOCCOC(C)=O | outcome | inactive |
| CCOP(=S)(OCC)SCSC(C)(C)C | outcome | inactive |
| ClC1=C(Cl)[C@]2(Cl)[C@@H]3[C@@H]4C[C@@H]([C@H]5O[C@@H]45)[C@@H]3[C@@]1(Cl)C2(Cl)Cl | outcome | inactive |
| ClC1=C(Cl)[C@]2(Cl)[C@@H]3[C@@H](Cl)[C@H]4O[C@H]4[C@@H]3C1(Cl)C2(Cl)Cl | outcome | inactive |
| CC(C)(O)C(=O)Nc1ccc([N+](=O)[O-])c(C(F)(F)F)c1 | outcome | inactive |
| CCC(C)(c1ccc(O)cc1)c1ccc(O)cc1 | outcome | inactive |
| COc1ccc(O)c(C(C)(C)C)c1 | outcome | inactive |
| CCCN(CCC)N=O | outcome | inactive |
| CCC(=O)O[C@H]1CC[C@H]2[C@@H]3CCC4=CC(=O)CC[C@]4(C)[C@H]3CC[C@]12C | outcome | inactive |
| CCOC(=O)C(O)(c1ccc(Cl)cc1)c1ccc(Cl)cc1 | outcome | inactive |
| O=C(NC(=O)c1c(F)cccc1F)Nc1cc(Cl)c(OC(F)(F)C(F)F)c(Cl)c1 | outcome | inactive |
| C=CC(=O)NCNC(=O)C=C | outcome | inactive |
| O=C(O)C(F)(F)C(F)(F)C(F)(F)C(F)(F)C(F)(F)F | outcome | inactive |
| CCCCCCOC(=O)c1ccccc1C(=O)OCCCCCC | outcome | inactive |
| Nn1cnnc1 | outcome | inactive |
| Oc1c(Cl)c(Cl)c(Cl)c(Cl)c1Cl | outcome | inactive |
| CCNc1nc(NC(C)C)nc(SC)n1 | outcome | inactive |

###

- Read-out: Glutathione S-transferase M3 (GSTM3), GSTM3 (gene 2947)
- test.name: LTEA_HepaRG_GSTM3: Life Technologies and Expression Analysis (LTEA) Assay for Glutathione S-transferase M3 (GSTM3) using HepaRG (AID 2283501)
- measurement.setup: mRNA level, 48 h; actives raise or lower the signal
Activity calls are given as the source filed them. Rule for the calls: active = hit-call score of the fitted dose curve at least 0.9, where 1 is the maximum; inactive = score below 0.9.
Labels: active, inactive

| compound | label |
| --- | --- |
| ClC1=C(Cl)[C@]2(Cl)[C@@H]3[C@H]4C[C@H]([C@@H]5O[C@H]45)[C@@H]3[C@@]1(Cl)C2(Cl)Cl | inactive |
| ClC1=C(Cl)[C@]2(Cl)[C@@H]3[C@@H]4C[C@@H]([C@H]5O[C@@H]45)[C@@H]3[C@@]1(Cl)C2(Cl)Cl | inactive |
| COc1ccc(O)c(C(C)(C)C)c1 | inactive |
| C[C@]12CCC(=O)C=C1CC[C@@H]1[C@@H]2CC[C@]2(C)C(=O)CC[C@@H]12 | inactive |
| Nc1ccc(-c2ccc(N)cc2)cc1 | inactive |
| Cc1ccccc1O | inactive |
| Nn1cnnc1 | inactive |
| CC1=C2C[C@H]3[C@@H](CC=C4C[C@@H](O)CC[C@@]43C)[C@@H]2CC[C@]12O[C@@H]1C[C@H](C)CN[C@H]1[C@H]2C | inactive |
| Cc1cccc(C)c1N | inactive |
| O=C(NC(=O)c1c(F)cccc1F)Nc1cc(Cl)c(OC(F)(F)C(F)F)c(Cl)c1 | inactive |
| O=C(O)C(F)(F)C(F)(F)C(F)(F)C(F)(F)C(F)(F)C(F)(F)C(F)(F)C(F)(F)F | inactive |
| CCSC(=O)N(CC)C1CCCCC1 | inactive |
| CCCCCCCCCc1ccc(O)cc1 | inactive |
| c1cc2ccc3cccc4ccc(c1)c2c34 | inactive |
| CN(C)c1nc(=O)n(C2CCCCC2)c(=O)n1C | inactive |
| CC(C)(O)C(=O)Nc1ccc([N+](=O)[O-])c(C(F)(F)F)c1 | inactive |
| CCCCCCCCCC[N+](C)(C)CCCCCCCCCC | inactive |
| C=CC(N)=O | inactive |
| Cc1cc2c3c(c1)C(c1ccccc1)=N[C@@H](NC(=O)c1ccncc1)C(=O)N3CC2 | inactive |
| NS(=O)(=O)C(F)(F)C(F)(F)C(F)(F)C(F)(F)C(F)(F)C(F)(F)C(F)(F)C(F)(F)F | inactive |
| Oc1ccc(Cl)cc1Cl | inactive |
| CCOC(=O)C(O)(c1ccc(Cl)cc1)c1ccc(Cl)cc1 | inactive |
| O=C(NC(=O)c1cc(F)c(F)cc1Cl)Nc1cc(F)ccc1N1CCC(C(=O)O)CC1 | inactive |
| CCCCCCCCOC(=O)c1ccccc1C(=O)OCCCCCCCC | inactive |
| CCOCCOC(C)=O | inactive |
| Clc1ccc(C(Cl)(Cl)Cl)cc1 | inactive |
| Cc1ccccc1CO[C@@H]1C[C@@]2(C(C)C)CC[C@]1(C)O2 | inactive |
| Cc1ccc(O)c(C)c1 | inactive |
| O=S(=O)(O)C(F)(F)C(F)(F)C(F)(F)C(F)(F)F | inactive |
| C=CC(=O)NCNC(=O)C=C | inactive |
| CCC(=O)O[C@H]1CC[C@H]2[C@@H]3CCC4=CC(=O)CC[C@]4(C)[C@H]3CC[C@]12C | inactive |
| ClC(Cl)=C(c1ccc(Cl)cc1)c1ccc(Cl)cc1 | inactive |
| CCOP(=S)(OCC)SCSC(C)(C)C | inactive |
| CCC(C)(c1ccc(O)cc1)c1ccc(O)cc1 | inactive |
| CC(C)C(=O)OCC(C)(C)C(OC(=O)C(C)C)C(C)C (configuration not stated) | inactive |
| CCC(C)c1cc([N+](=O)[O-])cc([N+](=O)[O-])c1O (configuration not stated) | active |
| O=NN(c1ccccc1)c1ccccc1 | inactive |
| CCCN(CCC)N=O | inactive |
| C[C@]12CCC(=O)C=C1CC[C@@H]1[C@@H]2CC[C@@]2(C)[C@H]1CC[C@]2(C)O | inactive |
| Cc1ccccc1[N+](=O)[O-] | inactive |
| C1CC2OC2CC1C1CO1 (configuration not stated) | inactive |
| ClC1=C(Cl)[C@]2(Cl)[C@@H]3[C@@H](Cl)[C@H]4O[C@H]4[C@@H]3C1(Cl)C2(Cl)Cl | inactive |
| Cc1cc(-c2ccc(N)c(C)c2)ccc1N | inactive |
| c1ccc(-c2ccccc2)cc1 | inactive |
| O=S(=O)(O)C(F)(F)C(F)(F)C(F)(F)C(F)(F)C(F)(F)C(F)(F)F | inactive |
| O=C(O)C(F)(F)C(F)(F)C(F)(F)C(F)(F)C(F)(F)F | inactive |
| Cc1cccc([N+](=O)[O-])c1 | inactive |
